System: PER-704
PROCEDURE_DETAILS: IC50 cell viability (Alamar Blue, 96 h)
Catalogue of molecules with associated log10 IC50 cell viability
READOUT: log10 IC50 cell viability (log10 of the value in nM)

molecule=COc1cc2c(cc1-c1c(C)noc1C)ncc1[nH]c(=O)n([C@H](C)c3ccccn3)c12 measurement_target=PER-704 numeric_result=2.98
molecule=CC(=O)O[C@@]12CO[C@@H]1C[C@H](O)[C@@]1(C)C(=O)[C@H](O)C3=C(C)[C@@H](OC(=O)[C@H](O)[C@@H](NC(=O)OC(C)(C)C)c4ccccc4)C[C@@](O)([C@@H](OC(=O)c4ccccc4)[C@H]21)C3(C)C measurement_target=PER-704 numeric_result=0.61
molecule=CC[C@@]1([C@@H]2O[C@@H]([C@H]3O[C@@](O)(CO)[C@H](C)C[C@@H]3C)C[C@@H]2C)CC[C@H]([C@]2(C)CC[C@]3(C[C@H](O)[C@@H](C)[C@@H]([C@@H](C)[C@@H](OC)[C@H](C)C(=O)O)O3)O2)O1 measurement_target=PER-704 numeric_result=3.97
molecule=COc1cc(Nc2ncc3c(n2)-c2ccc(Cl)cc2C(c2c(F)cccc2OC)=NC3)ccc1C(=O)O measurement_target=PER-704 numeric_result=3.69
molecule=COc1cccc2c1C(=O)c1c(O)c3c(c(O)c1C2=O)C[C@@](O)(C(C)=O)C[C@@H]3O[C@H]1C[C@H](N)[C@H](O)[C@H](C)O1 measurement_target=PER-704 numeric_result=2.04
molecule=Nc1ccn([C@@H]2O[C@H](CO)[C@@H](O)C2(F)F)c(=O)n1 measurement_target=PER-704 numeric_result=1.56
molecule=CC[C@@]1(O)C(=O)OCc2c1cc1n(c2=O)Cc2cc3c(CN(C)C)c(O)ccc3nc2-1 measurement_target=PER-704 numeric_result=2.49
molecule=Cc1sc2c(c1C)C(c1ccc(Cl)cc1)=N[C@@H](CC(=O)Nc1ccc(O)cc1)c1nnc(C)n1-2 measurement_target=PER-704 numeric_result=2.64
molecule="Cc1cc(/C=C/c2ccc3cc(N(C)C)ccc3[n+]2C)c(C)n1-c1ccccc1 [Pyrvinium pamoate]" measurement_target=PER-704 numeric_result=2.30
